system: MOLT-4; assay: NCI tumour cell line growth inhibition, 48 h
The source made the active and inactive calls. Cut-off read from the data, not from the text of the source: active = GI50 up to about 1.1 µM and inactive = higher.
Parameter: GI50

Reference set, count: 5
Problem: Which GI50 is listed for OC1CSc2nc3ccccc3n2C1 (stereo unspecified) ?
Result: > 100 µM (inactive)

Problem: GI50 for C/C(CC(=O)NCCc1ccccc1)=N\NS(=O)(=O)c1ccc(C)cc1 ?
Result: > 100 µM (inactive)

Problem: Give the measured GI50 of O=C(NCc1ccncc1)C1COc2cc(-c3cc(=O)c4ccccc4o3)ccc2O1 (stereo unspecified) .
Result: > 100 µM (inactive)

Problem: Could you share which GI50 value was measured for CC1(C)N/C(=C\[N+](=O)[O-])C(C)(C)N1O ?
Result: > 10 µM (inactive)

Problem: What does the record list as GI50 for CC1N(C)C(=O)OC12CCN(CCCC(=O)c1ccc(F)cc1)CC2 (stereo unspecified) ?
Result: > 100 µM (inactive)

***
Problem: Please give the measured GI50 for this compound: COc1cc(/C=C2\C(=O)N(C(=O)Cc3ccccc3)N=C2C)cc(OC)c1OC
Result: > 100 µM (inactive)

Problem: Requested field: GI50. Item: COc1cc(/N=N/N(C)C)c(C(C)c2c3cc(OC)c(OC)cc3cc[n+]2C)cc1OC (stereo unspecified)
Result: 56.1 µM (inactive)

Problem: For the compound CCN(CC)c1c(C)c(C(=O)OC)nn1-c1ccccc1 , what GI50 is on record?
Result: 43.1 µM (inactive)

Problem: Please look up its GI50: O=c1sc2c(s1)-c1sc(=O)sc1SS2
Result: > 61 µM (inactive)

Problem: Fill in: GI50 of CSC(=N/N=C(\C)c1ccc(S(=O)(=O)N(C)c2ccccc2)cc1)SC is ___
Result: 17.2 µM (inactive)

Problem: Look at this compound and give its reported GI50. CN(C)C(=O)NC(=S)N(C)C
Result: > 100 µM (inactive)

---

test system: A549; test: NCI tumour cell line growth inhibition, 48 h
Activity calls are given as the source filed them. Rule as the data show it: active = GI50 up to about 1.1 µM and inactive = higher.
Parameter: GI50

Consider the reported GI50 for these compounds:
Problem: GI50 for Oc1c(Cl)ccc2cccnc12 ?
Result: 3.96 µM (inactive)

Problem: Please report the recorded GI50 for CCC1CN2CCc3cc(OC)c(OC)cc3C2CC1CC1c2cc(OC)c(OC)cc2CCN1C(=O)C1CCCN1C(=O)OCc1ccccc1 (stereo not given) .
Result: 18.9 µM (inactive)

Problem: # lookup: GI50 of CCCCCCCCCCCC(=O)OCCOCCOCCOCCOCCOCc1ccc(OC)cc1
Result: > 100 µM (inactive)

Problem: Endpoint output: GI50 of CC(C)CCCC(C)[C@H]1CC[C@H]2N/C(=N/Cc3ccccc3)CCC[C@]12C (stereo not given in full) . Value?
Result: 1.83 µM (inactive)

Next item in the queue.
Problem: // returns reported GI50 for input COc1ccc(OC)c(/C=C/c2ccnc3ccccc23)c1
Result: 0.735 µM (active)

---

tested on: SF-539; experiment: NCI tumour cell line growth inhibition, 48 h
Activity calls are given as the source filed them. No stated cut-off is given here; in the data, active = GI50 up to about 1.1 µM and inactive = higher.
I would appreciate it if you answered using one of these outcomes: active, inactive

Problem: Tell me the assay call for C=C(Cl)C(C)(Cl)CCC(Br)C(C)(C)Cl (configuration not stated) please.
Result: inactive

Problem: Hi team, can someone confirm the assay call for NC1C2C=CC(C2)C1C(=O)O (configuration not stated) ?
Result: inactive

Problem: Record request — test call for COc1ccc(/C(CC2OC(=O)c3ccccc32)=N\NC(N)=O)cc1 (configuration not stated)
Result: inactive

Problem: For NC(=O)c1ncn(C2OC(CO)C(O)C2O)c1NC=O (configuration not stated) , what call appears in the results of this test?
Result: inactive

Next:
Problem: Hi, do you know how CN(C)CCNC(=O)c1cc(-c2nccn2C)nc2ccccc12 came out in this test?
Result: inactive

Problem: Just curious, what result did O=C1CSC(c2c[nH]c3ccccc23)N1c1cccc(Cl)c1 (configuration not stated) get here?
Result: inactive

Problem: Can you look up the reported call for O=C1N[C@@H]([C@H](CCCCCO)OC(=O)c2ccccc2)CO1 for me?
Result: inactive

Problem: Name the outcome recorded for CCOc1ccc2[nH]c3c(C)c4ccncc4c(C)c3c2c1 in the assay.
Result: inactive

Problem: Name the outcome recorded for Cc1cc2nc3c(C)c4ccccc4c(C)n3c2cc1C in the assay.
Result: inactive

Problem: Call for entry COc1ccc(/C=C2\N=C3NC(=O)C(N4CCOCC4)=C(N)N3C2=O)cc1 :
Result: inactive

These entries and their values trace back to ChEMBL document CHEMBL1201862.
